# Test system: OVCAR-3
# measurement description: NCI tumour cell line growth inhibition, 48 h
Active and inactive are the calls of the source. No stated cut-off is given here; in the data, active = GI50 up to about 1.1 µM and inactive = higher.
readout kind: GI50

| molecule | result |
| --- | --- |
| CN1OC2OC(=O)OC2[C@H]1[C@H]1O[C@H](c2ccccc2)OC1(C)c1cc(OC(=O)c2ccccc2)ccc1OC(=O)c1ccccc1 (some centres undefined) | > 50 µM (inactive) |
| CC(=O)OC(=O)O/C=C\CCl | > 100 µM (inactive) |
| N#CC(/C(=N\NC(N)=S)C(=O)NC1C2CC3CC(C2)CC1C3)c1ccc(Cl)cc1 (centres undefined) | > 100 µM (inactive) |
| C[C@H]1NC(=O)C2CCCCN2C(=O)CN(C)C(=O)CNC(=O)C2CCCCN2C(=O)[C@@H](NC(=O)c2nc3ccccc3cc2O)[C@@H](C)NC(=O)C2CCCCN2C(=O)CN(C)C(=O)CNC(=O)[C@@H]2CCCCN2C(=O)C1NC(=O)c1nc2ccccc2cc1O (some centres undefined) | 0.209 µM (active) |
| CC(=O)O[C@H]1[C@@H](OC2CCCC2(c2ccccc2)c2ccccc2)O[N+]([O-])=C[C@@]12COCc1cc3c(cc12)OCO3 (some centres undefined) | 1.89 µM (inactive) |
| CC(C)[Si](OCC1CC(C[C@H]2CC(C[C@H]3C[C@@H](CO[Si](C(C)C)(C(C)C)C(C)C)OC(C)(C)O3)OC(C)(C)O2)OC(C)(C)O1)(C(C)C)C(C)C (some centres undefined) | > 100 µM (inactive) |
| C[C@@H](CC(=O)OCc1ccccc1)OC1OC(COC(=O)C(C)(C)C)C(OC(=O)C(C)(C)C)C(OC(=O)C(C)(C)C)C1OC(=O)C(C)(C)C (some centres undefined) | > 100 µM (inactive) |
| O=c1c2cc(-c3ccccc3)cnc2sn1-c1ccc([N+](=O)[O-])cc1 | 16.9 µM (inactive) |
| O=C(Nc1ccc(C2=NCCN2)cc1)c1cncc(C(=O)Nc2ccc(C3=NCCN3)cc2)c1 | > 100 µM (inactive) |
| CN(CCC(=O)N1CC(CCl)c2ccc([N+](=O)[O-])cc21)CCC(=O)N1CC(CCl)c2ccc([N+](=O)[O-])cc21 (centres undefined) | 11.5 µM (inactive) |
| COc1ccc(-c2cc(C(O)C3CCCCN3)c3ccccc3n2)cc1 (centres undefined) | 14.4 µM (inactive) |
| C[C@H]1[C@@H]2C[C@@H]3O[C@@]34[C@H]3CCC5Cc6nc7c(nc6C[C@@]5(C)[C@]3(O)CC(=O)[C@@]24CO[C@]12OC(C)(C)C[C@@H]2O)CC1CC[C@@H]2C3=C[C@H]4O[C@@]5(OC(C)(CO)C[C@@H]5O)[C@H](C)[C@@]4(O)[C@]3(C)[C@@H](O)CC2[C@]1(C)C7 (some centres undefined) | 0.7 µM (active) |
| CCCCCCCCCCCCCC(=O)CSCCNC(=O)CCNC(=O)[C@@H](O)C(C)(C)COP(=O)(O)OP(=O)(O)OCC1OC(n2cnc3c(N)ncnc32)C(O)C1OP(=O)(O)O (some centres undefined) | 38 µM (inactive) |
| COc1cc(/C=C\c2ccncc2)cc(OC)c1OC | > 100 µM (inactive) |

====

# System: ACHN
# measurement description: NCI tumour cell line growth inhibition, 48 h
Calls of active or inactive are those of the source. Cut-off read from the data, not from the text of the source: active = GI50 up to about 1.1 µM and inactive = higher.
Outcome codes: active, inactive

| molecule | measured on | assigned category |
| --- | --- | --- |
| Cc1csc(NNC(N)=O)n1 | ACHN | inactive |
| COc1ccc2c(c1)c(=O)c1c(NCCNCCO)ccc3c(=O)n(CCN(C)C)c(=O)n2c31 | ACHN | active |
| OCC(O)C(O)C(O)c1nn(-c2ccc(Cl)cc2)c2nc3cc(Cl)c(Cl)cc3nc12 (stereo unspecified) | ACHN | inactive |
| COc1ccc(C2SC(=N)Nc3c2c(C)nn3C(=O)c2ccncc2)cc1 (stereo unspecified) | ACHN | inactive |
| O/N=C(\c1nc2ccc(Cl)cc2nc1O)C(O)c1ccc(Cl)cc1Cl (stereo unspecified) | ACHN | inactive |
| N=C(N)NCCCC(NC(=O)OCCCCn1ccc(N)nc1=O)C(=O)O (stereo unspecified) | ACHN | inactive |

====

We begin with a simple list: items and their reported GI50.
# System: HT-29
# measurement description: NCI tumour cell line growth inhibition, 48 h
Activity calls are given as the source filed them. Cut-off read from the data, not from the text of the source: active = GI50 up to about 1.1 µM and inactive = higher.

| compound | GI50 |
| --- | --- |
| CC1(C)CCc2c(cc3c(c2O)CCC(C)(C)O3)O1 | 35.8 µM (inactive) |
| COCC(O)CN1C(N)=NC(O)C1O (stereo unspecified) | > 100 µM (inactive) |
| CC1NC(C(=O)O)Cc2cc(O)c(O)cc21 (stereo unspecified) | > 100 µM (inactive) |
| C(=C/c1nnnn1-c1ccccc1)/Nc1ccccc1 | 28.2 µM (inactive) |
| CCOP(=O)(OCC)/C(F)=C/c1ccc(F)cc1 | > 100 µM (inactive) |
| c1ccc(CC(Nc2cccnc2)c2ccccc2)cc1 (stereo unspecified) | 16.4 µM (inactive) |
| O=C1/C(=C/c2ccc(Cl)cc2)NC(=S)N1CN1CCCCC1 | 15.8 µM (inactive) |
| COc1ccc2c(c1)CN1C(=N2)CSC1c1ccccc1Cl (stereo unspecified) | 17.4 µM (inactive) |
| Cc1cc2c(=O)cc(-c3ccc(C(=O)O)cc3)oc2c(C(N)=O)c1C | > 100 µM (inactive) |
| CCCCN1C(=O)C2c3[nH]c4ccccc4c3C3CCCCC3C2C1=O.CCCCN1C(=O)C2c3[nH]c4ccccc4c3[C@@H]3CCCCC3C2C1=O (stereo unspecified) | 28.8 µM (inactive) |
| CN1C[C@H]2[C@@H](C1=O)[C@H](c1ccccc1)ON2C | > 100 µM (inactive) |

====

# Tested on: CCRF-CEM
# measurement description: NCI tumour cell line growth inhibition, 48 h
The source made the active and inactive calls. Rule as the data show it: active = GI50 up to about 1.1 µM and inactive = higher.
Outcome codes: yes (1) for active, no (0) for inactive

| compound | assigned category |
| --- | --- |
| O=c1c2cc(-c3ccccc3)cnc2sn1-c1ccc([N+](=O)[O-])cc1 | no (0) |
| CC(=O)OC1COC(n2nc(/C=C/c3ccc(Cl)cc3)c(=O)n(/N=C/c3ccccc3)c2=S)C(OC(C)=O)C1OC(C)=O (configuration not stated) | no (0) |
| Cc1ccc(O)c(C(c2cc(C)ccc2O)c2cc([N+](=O)[O-])ccc2O)c1 | no (0) |
| CC(C)CCC1CC2C(=O)N(c3ccccc3)C(=O)C2c2[nH]c3ccccc3c21 (configuration not stated) | no (0) |
| COc1ccc(/N=C(/C[S+]([O-])c2ccc(C)cc2)C(F)(F)F)cc1 (configuration not stated) | no (0) |
| O/N=C(\c1nc2ccc(Cl)cc2nc1O)C(O)c1ccc(Cl)cc1Cl (configuration not stated) | no (0) |
| Cc1ccc2c(C3Cc4ccccc4N3C(=O)/C=C\C(=O)O)c(C)[nH]c2c1 (configuration not stated) | no (0) |
| CC(C)(C)[Si](C)(C)OCC1CCC(n2cnc3c(N)ncnc32)O1 (configuration not stated) | no (0) |
| CC1(C)CCOC(=O)C(Cl)CC1Cl (configuration not stated) | no (0) |
| Oc1ccc(O)c(CNc2ccc(C(O)C(F)(F)F)cc2)c1 (configuration not stated) | no (0) |
| Cn1c2ccccc2c2ccc3c(c21)C(=O)C=CC3=O | yes (1) |
| CCO/S(=N/S(=O)(=O)c1ccccc1)c1ccccc1[N+](=O)[O-] (configuration not stated) | no (0) |
| COc1ccc(C2ON(c3ccccc3)CC=C2C)cc1 (configuration not stated) | no (0) |
| Cc1cccc2nc3cccc(C(=O)NCCC[N+](C)(CCCNC(=O)c4cccc5nc6cccc(C)c6nc45)Cc4ccc([N+](=O)[O-])n4C)c3nc12 | yes (1) |
| CC1(C)N=C(N)N=C(N)N1c1ccc(Cl)cc1 | no (0) |
| CC1CC(=O)Nc2ccc(Cl)cc2N1C(=O)CN1CCC(CCCCN(C)C)CC1 (configuration not stated) | no (0) |
| CC(C)[Si](OCC1CC(C[C@H]2CC(C[C@H]3C[C@@H](CO[Si](C(C)C)(C(C)C)C(C)C)OC(C)(C)O3)OC(C)(C)O2)OC(C)(C)O1)(C(C)C)C(C)C (some centres not stated) | no (0) |
| COc1cc2c3c(c1O)C1(C=CC(=O)C=C1)CC3N(C)CC2 (configuration not stated) [GLAZIOVINE] | no (0) |
| CC1CC(Nc2ccc(Br)cc2)N(C(=O)c2ccc(Br)cc2)O1 (configuration not stated) | no (0) |
| CC(=O)/N=C1/N(/C=C2\C(=O)Oc3ccccc3C2=O)C(=O)/C(=C/c2ccc(Cl)cc2Cl)N1C | no (0) |
| COC(=O)C1(O)c2ccccc2N=C2C1CCN2C (configuration not stated) | no (0) |
| Cc1nc2c(Cl)cc(Cl)cc2c(Cl)c1CCCl | no (0) |
